# assay-comment: NCI Yeast Anticancer Drug Screen. Data for the mec2-1 strain (AID 157)
# measurement-parameters: S. cerevisiae mec2-1 strain, at 50.0 µM
Compounds without any hit were thinned out: in the full panel of roughly 79,000, 15% have a hit. Calls of active or inactive are those of the source. Rule as the data show it: active = growth inhibition above about 70%; inactive = the rest.
Select the matching outcome among active, inactive

Name the outcome recorded for `C/C(=N\NC(=S)N1CCC(C)CC1)c1cccc2cccnc12` in the assay.
inactive

Repeat for the following molecule: `COc1ccccc1NC(=O)CSC(N)=O`
inactive

One more molecule: C=CC1(NC(=O)c2ccccc2)CCC(C(C)(C)C)CC1 (configuration not stated)
inactive

Also check CC(=O)N1C=C2CCC3c4ccccc4NC3C2CC1 (configuration not stated)
inactive

Consider next the molecule `CCOC(=O)Nc1cc2c(cn1)[nH]c1ccccc12` in the same way.
inactive

Now give it for `Cc1cccc(Cl)c1NC(=S)Nc1cccc(C(F)(F)F)c1` too.
active

Same thing, different molecule: `O=[N+]([O-])c1ccc(S(=O)(=O)C/C=C/CCl)c([N+](=O)[O-])c1`
active

Moving on to `NC(=S)Nc1ccccc1O`
inactive

Also, `CCCCCCCCCCCC(=O)Oc1c(Cl)c(Cl)c(C#N)c(Cl)c1Cl` please.
inactive

Another molecule: N#CC1CCCC(Cc2ccccc2)(c2ccccc2)C1=O (configuration not stated)
active

Ok, now `CCOc1ccnc2c(C)c3c([nH]c4ccccc43)c(C)c12`
active

For `O=C1/C(=C/c2ccc([N+](=O)[O-])cc2)CNC/C1=C\c1ccc([N+](=O)[O-])cc1` then?
active

###

Please provide measured growth inhibition for the entries that follow.
# assay-comment: NCI Yeast Anticancer Drug Screen. Data for the sgs1 mgt1 strain (AID 161);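 also: 0% = growth of cultures given vehicle only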
# measurement-parameters: S. cerevisiae sgs1 mgt1 strain, at 50.0 µM (retest, dose inferred, filed as 5.0), hits give high values
The panel holds about 79,000 compounds, 15% with a hit somewhere; the sample as a whole holds those more often.
Field format: number, assumed %, no unit text.

Form field: reported growth inhibition of `CCCCCCCCS(=O)(=O)Nc1ccccc1`
99

And what about the compound CC1(C)OC2C(COC(c3ccccc3)(c3ccccc3)c3ccccc3)OC(n3cnc4c(=O)[nH]cnc43)C2O1 (stereo unspecified) ?
99

Check `O=C(CNS(=O)(=O)Cc1ccccc1)NCC(=O)NNc1ccccc1` too.
63

Entry `O=C(C[n+]1ccc2ccccc2c1)c1ccc2ccc3ccccc3c2c1` please
89

Next entry: `Cc1c(Cl)ccc(O)c1[N+](=O)[O-]`
82

Try the compound `Cn1c(=S)c2[nH]c(SC3CCCCC3)nc2n(C)c1=O`
-20

// same read-out, input: CCCN1CN(C(C(=O)N[C@@H]2C(=O)N3C(C(=O)O)=C(C)CSC23)c2ccccc2)CSC1=S (stereo partly specified)
-10

Proceed to O=C1c2ccccc2C(O)(c2ccccc2)c2c(Cl)cccc21 (stereo unspecified)
28

Next record, please: `CCN(CC)c1ccc(N=C2C=C(C(=O)Nc3cccc(Cl)c3)C(=O)c3ccccc32)c(C)c1`
-23

Do the same for `O=C1C=CC(=Nc2cccc3c2-c2ccccc2C3)O1` please
99

Also, `COc1ccc2c(c1)nc1ccc(Cl)cc1[n+]2C` please.
55

###

# assay-comment: NCI Yeast Anticancer Drug Screen. Data for the mec2-1 strain (AID 157)
# measurement-parameters: S. cerevisiae mec2-1 strain, at 50.0 µM, hits give high values
This is part of a sample that, as a whole, favours compounds with a hit. Of some 79,000 tested, about 15% had one in any assay.
Could you please classify the records by growth inhibition using these ranges: low: < 10%; mid: ≥ 10% and < 90%; high: ≥ 90%

Pick a category. Item: `CC(C)(c1ccc(OC#N)cc1)c1ccc(OC#N)cc1`
mid

And `Oc1cccc(NCSc2ccc(Cl)cc2)c1` ?
high

Then this compound: `N#CC(C#N)=c1c2nsnc2c(=C(C#N)C#N)c2nsnc12`
low

What do you get for `COc1cccc(C=Nc2ccc(I)cc2)c1O.COc1cccc(C=Nc2ccc(I)cc2)c1O.[Co]` ?
mid

Try this compound too: `CC(=O)Nc1ccc(C(C)(C)c2ccc(C)cc2)cc1`
low

Now give it for `CC(C)Sc1nc(NC(=O)N(CCCl)N=O)cc(=O)[nH]1` too.
low

How about this compound: `O=[N+]([O-])c1ccc(SC(=S)N2CCCCC2)c([N+](=O)[O-])c1`
high

Param item: `CC(C)(C)c1c2c(c(C(C)(C)C)c3c1OCN(Cc1ccccc1)C3)OCN(Cc1ccccc1)C2`
low

Query `CCSc1nnc(CSc2nc(-c3ccccc3)c(-c3ccccc3)[nH]2)n1-c1ccccc1` next
mid

// repeat for `Cc1ccc(Oc2ccc(C(=O)C(CN(C)C)CN(C)C)cc2)cc1` and report
high

Also `O=C(c1cccs1)N(C(=S)N1CCN(c2ccccn2)CC1)c1ccccc1` ?
low

Then `Nc1nn2c(C(Br)Br)cc(C(Br)Br)nc2c1[N+](=O)[O-]` ?
high

Now this one: `CN(C)CC/C(=N\Nc1ccc(Cl)c(Cl)c1)c1ccccc1`
high

Another compound to check: `CN(C)CC/C(=N\Nc1ccc([N+](=O)[O-])cc1)c1ccccc1`
mid

And for `CCCCCCCCCCCCCCCCCCNCCCCCCCCCCCCCCCC` ?
mid

What about `CN(C)CCOc1cc2c(c3ccccc13)-c1ccccc1C2=O` ?
high

Another compound to check: `CCCCOC(=O)c1cnc[nH]c1=O`
low

Another compound: `CCN(CC)c1ccc(N=C2C=C(C(=O)Nc3cccc(Cl)c3)C(=O)c3ccccc32)c(C)c1`
low

###

Provide the reported growth inhibition of each item.
# assay-comment: NCI Yeast Anticancer Drug Screen. Data for the bub3 strain (AID 167)
# measurement-parameters: S. cerevisiae bub3 mutant strain, at 5.0 µM (retest, dose inferred, filed as 0.5), hits give high values
This is part of a sample that, as a whole, favours compounds with a hit. Of some 79,000 tested, about 15% had one in any assay. The source made the active and inactive calls. No stated cut-off is given here; in the data, active means growth inhibition above about 70%; inactive means the rest.

// growth inhibition lookup, key: `CCCCc1ccc2nccc(N/N=C/c3ccc(OC)c4ccccc34)c2c1`
-4% (inactive)

Param item: `CC(=O)Nc1cccc(C(=O)O)c1`
4% (inactive)

How about `O=C1C=CC(=O)c2nc3ccccc3nc21` ?
-1% (inactive)

Param item: `CCN(CC)CCNc1ccc(C)c2oc3ccc(O)cc3c(=O)c12`
-4% (inactive)

Another compound: `Nc1ccccc1/C=C/c1c[nH]c2ccccc12`
28% (inactive)

Ok, now `O=C(Cc1nc2ccccc2s1)C(=O)Nc1ccc(Cl)cc1`
5% (inactive)

###

# assay-comment: NCI Yeast Anticancer Drug Screen. Data for the bub3 strain (AID 167)
# measurement-parameters: S. cerevisiae bub3 mutant strain, at 50.0 µM, hits give high values
# Procedure: Growth inhibition of yeast strains with defined genetic alterations is measured as a screen for potential anti-cancer activity. Selected strains with alterations in DNA damage repair or cell cycle control were exposed to compounds and growth inhibition was measured relative to vehicle treated controls. The strain used in this assay is bub3
About 79,000 compounds went through this panel and 15% of them were active in at least one assay; those are over-represented in the sample as a whole.
measured-metric: growth inhibition (%)
Field format: number, assumed %, no unit text.

Looking for the measured growth inhibition of CCCCC(O)(c1ccc2nc(NC(=O)OC)[nH]c2c1)c1cccs1 (stereo not given) , can you help?
35.5

Please do the same for `Cc1ccc(C(=O)OCCN2CCN(c3ccccc3)CC2)c([N+](=O)[O-])c1OCc1ccccc1` as well.
72.7

What about O=[N+]([O-])c1ccc(N2N=NC(CN3CCOCC3)C2N2CCOCC2)cc1 (stereo not given) ?
7.85

Now try `O=S(=O)(Sc1ccccc1)C(c1ccccc1)c1ccccc1` .
62

Subsequent entry: CC([C@H]1CCC2C3CCC4CC5(CC[C@]4(C)C3CC[C@@]21C)c1ccccc1C(=O)N5C)N(C)C (stereo not given in full)
86.5

###

I'd appreciate it if you could supply growth inhibition values for the items below.
# assay-comment: NCI Yeast Anticancer Drug Screen. Data for the bub3 strain (AID 167)
# measurement-parameters: S. cerevisiae bub3 mutant strain, at 5.0 µM (retest, dose inferred, filed as 0.5), hits give high values
# Method: Growth inhibition of yeast strains with defined genetic alterations is measured as a screen for potential anti-cancer activity. Selected strains with alterations in DNA damage repair or cell cycle control were exposed to compounds and growth inhibition was measured relative to vehicle treated controls. The strain used in this assay is bub3
This is part of a sample that, as a whole, favours compounds with a hit. Of some 79,000 tested, about 15% had one in any assay.
Please give a number only; it is taken to be in %.

Name the reported growth inhibition value associated with the compound N#CC1CCC(c2ccccc2)(c2ccccc2)C1=O (stereo unspecified)
-4

Another compound to look at: COc1ccc(NC(=O)CCC(=O)C(C)C(=O)c2ccccc2)cc1 (stereo unspecified)
0

Also `COc1cc2c3c(c4ccc(OC)c(OC)c4c2cc1OC)CN1CCC[C@@H]1C3` ?
8

Also `CCCCCCCCCCCCCCCc1ncc(C)[nH]1` , if possible.
75

Queued: CN(C)c1nc(Cl)nc2c1ncn2C1OCC(O)C(O)C1O (stereo unspecified)
-1

Cool, now `COc1ccc(N(C)Sc2ccccc2)cc1`
12

Same question, `CCCCCCCCCCCC(=O)C(=O)c1ccc(O)cc1O` this time
45

Now try `c1ccc(CN2CCC3(CC2)SSC2(CCN(Cc4ccccc4)CC2)SS3)cc1` .
16

Same read-out for `Nc1ccccc1Sc1ccccc1` ?
37

Param item: `CCOC(=O)C(=N\Nc1cccc(C)c1C)/C(C)=N\NC(N)=S`
3

What do you have for `Nc1nnc2nc(C(C(=O)c3ccccc3Cl)c3nc4nnc(N)n4[nH]c3=O)c(=O)[nH]n12` ?
-1

Now this one: `Cn1cnc([N+](=O)[O-])c1Sc1ccc(Cl)cc1`
0

What do you get for `O=C(Nc1cccc(Cl)c1)OCCN(CCOC(=O)Nc1cccc(Cl)c1)C(=O)Nc1cccc(Cl)c1` ?
53

Also check `Nc1nc(-c2ccccc2)cc(-c2ccccc2O)n1`
9

Also need `COc1ccccc1/C=C1\SC(=S)N(/C=C2\C(=O)Oc3ccccc3C2=O)C1=O` , thanks.
20

CC(=O)c1c(O)c(C)c(O)c2c1OC1=CC(=O)c3c(C)noc3C12C (stereo unspecified) , same question.
-9

Repeat for the following compound: `O=Cc1ccc(-c2nccc3c2[nH]c2ccccc23)o1`
24

Now try `O=C(O)CCCc1ccc2ccccc2c1` .
13

Consider next the compound Cc1ccccc1C1c2c(C)cccc2C(=O)CC1CC(=O)O (stereo unspecified) in the same way.
6

Please answer likewise for `O=C(O)/C=C\c1cc2ccccc2c2ccccc12`
8

Let us now turn to `Cn1c(=NCCc2ccccc2)oc2ccc(Cl)cc21`
4

Moving on to O=C(c1ccc(Cl)cc1)C1N=NCC1c1ccccc1 (stereo unspecified)
4

Next compound up: Cc1ccc(S(=O)(=O)OC(C=O)C(O)C(O)COC(c2ccccc2)(c2ccccc2)c2ccccc2)cc1 (stereo unspecified)
98

# repeat for `CSC(=Nc1ccccc1)NC(=O)Nc1ccc(Cl)cc1`
-22

Request: `O=[N+]([O-])c1ccc(-c2cccc(Cl)c2)c([N+](=O)[O-])c1`
9

Next up: CCCCCCCCCCCCOC(=O)CC1CC(C(C)=O)C1(C)C (stereo unspecified)
-3

Same question, `C#Cc1cccc(N2C(=O)CCC2=O)c1` this time
100

Param item: `O=C(c1c(F)c(F)c(F)c(F)c1F)N1CCN(C(=O)c2c(F)c(F)c(F)c(F)c2F)C1=S`
-7

Also check `O=C(O)/C(=C\c1cc(I)c(O)c(I)c1)c1ccc(I)cc1`
3

And then `CC(=O)C(=C(I)I)c1ccccc1` , what is it?
-34

Next: CC1(c2ccccc2)OC(=O)C=CC1=O (stereo unspecified)
32

What do we get for `Oc1ccc(C23CC4CC(CC(C4)C2)C3)cc1` ?
-69

Similarly, `CC1CCN(SSc2nc3ccccc3s2)CC1` ?
61

One more compound: `O=S(=O)(Sc1ccccc1)C(c1ccccc1)c1ccccc1`
-4

Check `CCCCNc1ccc(C(=O)OC2CCN(C)CC2)c(Cl)c1` too.
99

Moving on to the next compound: `CCC(CC)=NNc1ccc([N+](=O)[O-])cc1`
4

Please do the same for `N#C/C=C/C=C/C#N` as well.
-2

Now try `COc1ccc2c(C)cc(N/N=C/c3cccc(C)n3)nc2c1` .
-4

For `O=S(=O)(Nc1ccc(Cl)cc1)c1ccccc1` then?
-8

Would you kindly repeat that for `COc1ccc2c(c1)CN([C@@H](C)[C@H]1CC[C@H]3[C@@H]4CC[C@H]5C[C@@H](O)CC[C@]5(C)[C@H]4CC[C@]13C)CO2` ?
91

Now this one: CNC(=O)OC1/C(C)=C\C(C)C(O)C(OC)CC(C)CC2=C(OC)C(=O)C=C(C2=O)N(C)C(=O)/C(C)=C/C=C\C1OC (stereo unspecified)
9

Continue with `CCCCCCCCCCCCCCCCN(C)c1ccc(S(=O)(=O)O)cc1[N+](=O)[O-]`
60

Similarly, `Cc1ccc(S(=O)(=O)N/N=C/c2oc(-c3cccc([N+](=O)[O-])c3)c(-c3cccc([N+](=O)[O-])c3)c2[N+](=O)[O-])cc1` ?
31

Note, next up: `O=C(c1cccnc1)N(C1CCCCC1)C1CCCCC1`
1

Then this compound: `ICCCCSc1cc(-c2ccccc2)[o+]c2ccccc12`
7

And CC(NC(=O)OCc1ccccc1)C(=O)NNc1ccccc1Cl (stereo unspecified) ?
73

Origin of values: PubChem BioAssay (NCI)
